- System: SK-MEL-2 melanoma
- protocolNotes: NCI tumour cell line growth inhibition, 48 h
Answer each item with its documented TGI.
Value expressed in µM; do not type the unit.

TGI in this record for C[C@]12C/C(=C/O)C(=O)C(O)=C1CC[C@@H]1C2CC[C@@]2(C)C1CC[C@@H]2O (some centres not stated) : 55.4

TGI in this record for COc1ccc2c(NCCCCCCNc3c4ccccc4nc4cc(OC)ccc34)c3ccccc3nc2c1 : 1.67

TGI in this record for CCN(CC)CCO/N=C1\CC[C@H]2[C@@H]3CCc4cc(OC)ccc4[C@H]3CC[C@]12C : 5.07

* * *

- Test system: SK-MEL-28 melanoma
- protocolNotes: NCI tumour cell line growth inhibition, 48 h
Answer each item with its documented TGI.

TGI in this record for COP(=O)(OC)C(Nc1ccc(Cc2ccc(NC(c3ccco3)P(=O)(OC)OC)cc2)cc1)c1ccco1 (stereo not drawn) : > 100 µM

TGI in this record for O=C(O)/C=C\C(=O)Nc1ccc(S(=O)(=O)c2ccc(NC(=O)/C=C\C(=O)O)cc2)cc1 : > 100 µM

TGI in this record for CC(C)C(N)C(=O)NC(CCC(=O)NCCCCC(N)C(=O)NCCCNc1ccc([N+](=O)[O-])c2[nH]c3ccccc3c(=O)c12)C(N)=O (stereo not drawn) : > 100 µM

meta.source: PubChem BioAssay (NCI)
